Test Details: Concentration in mouse gastric mucin after a single oral dose
Assay type: in vivo
Cond: female, C57/BL6, mouse, gastric mucin, po, 10 mg/kg, mouse, 4.00 h after single dose 10 mg/kg PO; read-out: concentration in gastric mucin, Animal-1

| Molecule | concentration at 4 h |
| --- | --- |
| CCCCCC[C@@H](CO)NCc1c[nH]c2c(N)ncnc12 [Hexyl-SerMe-Immucillin A] | 670 ng/g |

----------
Test Details: Concentration in mouse gastric mucin after a single oral dose
Format: in vivo
Cond: female, C57/BL6, mouse, gastric mucin, po, 10 mg/kg, mouse, 24.0 h after single dose 10 mg/kg PO; read-out: concentration in gastric mucin, Mean
Observable: concentration at 24 h (ng/g)

| Compound | Observable | Scale Unit | Test Value |
| --- | --- | --- | --- |
| CCCCCC[C@@H](CO)NCc1c[nH]c2c(N)ncnc12 [Hexyl-SerMe-Immucillin A] | concentration at 24 h | ng/g | 410 |

----------
Test Details: Concentration in mouse gastric mucin after a single oral dose
Format: in vivo
Cond: female, C57/BL6, mouse, gastric mucin, po, 10 mg/kg, mouse, 24.0 h after single dose 10 mg/kg PO; read-out: concentration in gastric mucin, Animal-2
Protocol: (a) Oral Dosing of Mice with 10 mg/kg Hexyl-SerMe-Immucillin A: Female C57/BL6 mice ranging from 5-6 weeks in age and 18-22 grams in weight (Harlan Laboratories) were dosed by oral gavage with of Hexyl-SerMe-Immucillin A (0.4 mL of a 0.5 mg/mL solution in water for injection). […]

| Compound Smiles | Scale Unit | concentration at 24 h |
| --- | --- | --- |
| CCCCCC[C@@H](CO)NCc1c[nH]c2c(N)ncnc12 | ng/g | 390 |

----------
Test Details: Concentration in mouse gastric mucin after a single oral dose
Type: in vivo
Cond: female, C57/BL6, mouse, gastric mucin, po, 10 mg/kg, mouse, 12.0 h after single dose 10 mg/kg PO; read-out: concentration in gastric mucin, Animal-1

| Compound | concentration at 12 h |
| --- | --- |
| CCCCCC[C@@H](CO)NCc1c[nH]c2c(N)ncnc12 [Hexyl-SerMe-Immucillin A] | 960 ng/g |

----------
Test Details: Concentration in mouse gastric mucin after a single oral dose
Assay type: in vivo
Cond: female, C57/BL6, mouse, gastric mucin, po, 10 mg/kg, mouse, 4.00 h after single dose 10 mg/kg PO; read-out: concentration in gastric mucin, Mean
Observable: concentration at 4 h

| Molecule | Observable | Test Value |
| --- | --- | --- |
| CCCCCC[C@@H](CO)NCc1c[nH]c2c(N)ncnc12 [Hexyl-SerMe-Immucillin A] | concentration at 4 h | 1770 ng/g |

----------
Test Details: Concentration in mouse gastric mucin after a single oral dose
Type: in vivo
Cond: female, C57/BL6, mouse, gastric mucin, po, 10 mg/kg, mouse, 8.00 h after single dose 10 mg/kg PO; read-out: concentration in gastric mucin, Animal-1
Observable: concentration at 8 h (ng/g)

| Compound Smiles | Test Value |
| --- | --- |
| CCCCCC[C@@H](CO)NCc1c[nH]c2c(N)ncnc12 | 650 |

----------
Test Details: Concentration in mouse gastric mucin after a single oral dose
Type: in vivo
Cond: female, C57/BL6, mouse, gastric mucin, po, 10 mg/kg, mouse, 1.00 h after single dose 10 mg/kg PO; read-out: concentration in gastric mucin, Mean

| Compound Smiles | Scale Unit | concentration at 1 h |
| --- | --- | --- |
| CCCCCC[C@@H](CO)NCc1c[nH]c2c(N)ncnc12 | ng/g | 14900 |
